Source of measurements: PubChem BioAssay AID1259407

# System: CCRIS mutagenicity, Ames/micronucleus/aberration tests
# method notes: CCRIS mutagenicity studies
# conditions: Test System: AMES SALMONELLA TYPHIMURIUM; Strain/Indicator: TA1537; Metabolic Activation: NONE; Method: PREINCUBATION
Active and inactive are the calls of the source. How the calls were made is not given here.
Labels: active, inactive

compound=CCC[C@]1(O)CC[C@H]2[C@@H]3CC[C@H]4CC(=O)C[C@H](C)[C@]4(C)[C@H]3CC[C@@]21C qualitative_label=inactive
compound=O=[N+]([O-])c1ccc(NCCO)c(OCCO)c1 qualitative_label=active
compound=OC[P+](CO)(CO)CO qualitative_label=inactive
compound=CNc1ccccc1 qualitative_label=inactive
compound=O=C1O[C@H]([C@@H](O)CO)C(O)=C1O qualitative_label=inactive
compound=CC(C)(c1ccc(O)cc1)c1ccc(O)cc1 qualitative_label=inactive
compound=O=S(=O)(O)c1cc(S(=O)(=O)O)c2cc(O)ccc2c1 qualitative_label=inactive
compound=COc1ccc(-c2noc(CC(=O)O)c2-c2ccc(OC)cc2)cc1 qualitative_label=inactive
compound=C[C@@H]1COc2c(N3CCN(C)CC3)c(F)cc3c(=O)c(C(=O)O)cn1c23 qualitative_label=inactive
compound="CNCc1ccc(CSCCNC(=NCC(O)c2ccc(O)cc2)NS(C)(=O)=O)o1 (stereo not drawn)" qualitative_label=inactive
compound="CCCCCCCCC1CO1 (stereo not drawn)" qualitative_label=inactive
compound=O=[N+]([O-])c1c(Cl)c(Cl)cc(Cl)c1Cl qualitative_label=inactive
compound=CC(C)Br qualitative_label=inactive
